Molecular target: T1, human SLC34A2 (human, UniProt O95436 1-690)
T1 construct: whole, on cells; also called human solute carrier 34 A2; NaPi2b
T1 sequence (looked up): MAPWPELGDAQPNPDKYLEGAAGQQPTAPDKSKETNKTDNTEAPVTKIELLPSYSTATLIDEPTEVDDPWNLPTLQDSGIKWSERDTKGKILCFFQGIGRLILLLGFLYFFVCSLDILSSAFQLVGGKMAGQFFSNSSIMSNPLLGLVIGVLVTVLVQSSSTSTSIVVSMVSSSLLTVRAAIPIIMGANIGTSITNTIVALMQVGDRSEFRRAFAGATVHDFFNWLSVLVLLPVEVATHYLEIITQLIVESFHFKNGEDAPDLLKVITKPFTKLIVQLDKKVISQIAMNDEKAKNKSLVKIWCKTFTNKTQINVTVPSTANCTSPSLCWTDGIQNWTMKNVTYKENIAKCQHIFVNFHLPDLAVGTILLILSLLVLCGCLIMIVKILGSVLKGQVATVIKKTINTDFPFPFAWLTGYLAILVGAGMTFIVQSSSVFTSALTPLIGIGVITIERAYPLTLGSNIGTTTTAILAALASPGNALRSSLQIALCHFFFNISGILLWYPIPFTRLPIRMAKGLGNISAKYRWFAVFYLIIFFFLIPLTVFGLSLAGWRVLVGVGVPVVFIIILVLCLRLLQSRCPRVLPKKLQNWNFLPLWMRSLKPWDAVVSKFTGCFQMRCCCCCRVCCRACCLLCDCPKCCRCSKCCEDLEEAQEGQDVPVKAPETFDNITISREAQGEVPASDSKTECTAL
Test: FACS, HEK293/human SLC34A2 cells
Readout Kind: pEC50
Note on units: pEC50 is unitless, being -log10 of a concentration expressed in mol/L.

## Input Entry 91C9F1.p1 hIgG1 (antibody, V domains shown, PTM-derisked chimeric, hIgG1; also called 91C9F1.pl hIgG1) VH: EVQLQQSGPELVKPGTSVKISCKTSGFFFTEYIIHWVKQSHGRSLEWIGGIIPNNDVTNYKQNFRGKAALTADKSSNTAYMELRSLTSEDSAVYYCARWRNAYYSAMDSWGQGTSVTVSS VL: DIVVTQSHKFMSTSLGDRVSITCTASQDVGTAVAWYQQKPGHSPKLLIYWASTRHTGVPERFTGSGSGTDFTLTITNVQSEDLADYFCQQYRTSPLTFGVGTKLELK has what pEC50?
## Output 9.17

## Input What does the data say about its pEC50? Entry: xi91C9F1 hIgG1 (antibody, V domains shown, chimeric, hIgG1) VH: EVQLQQSGPELVKPGTSVKISCKTSGFFFTEYIIHWVKQSHGRSLEWIGGIIPNNGVTNYKQNFRGKAALTADKSSNTAYMELRSLTSEDSAVYYCARWRNGYYSAMDSWGQGTSVTVSS VL: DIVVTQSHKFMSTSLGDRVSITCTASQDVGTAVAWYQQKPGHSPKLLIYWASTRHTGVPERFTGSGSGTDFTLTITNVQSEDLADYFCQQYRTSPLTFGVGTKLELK
## Output 8.80

## Input Need pEC50, item xi62G10E4G8 hIgG1 (antibody, V domains shown, chimeric, hIgG1) VH: QVQLQQSGAEVVKPGASVKMSCKASGYTFPSYITHWVKQTPGQGLEWIGAIYPGNGDTSYIQKFKGKATLTADKSSSTAYMQLSSLTSEDSAVYYCARGTYGTSAWFTYWGQGTLVTVSA VL: DIVLTQSPATLSVTPGDSVSLSCRARQNIGNNLYWYQQKSHESPRLLIKYASQSISGIPSRFSGSGSGTDFTLTINSVETEDFGVYFCQQSFSWPLTFGAGTKLELK
## Output 8.71

## Input Given 30H9B8F9 VH_P1/VL hIgG1 (antibody, V domains shown, PTM-derisked chimeric, hIgG1; that P1 is the N=>S version follows from the humanized .p1 chains; also called 30H9B8F9.p1 hIgG1) VH: QVQLQQPGAELVKPGASVKMSCKTSGYTFTTNNMHWVKQTPGQGLEWIGAIYPGSGATAYNQKFKGKATLTADKSSSTAYMQLSSLTSEASAVYYCARGMYGHGAMDYWGQGTSVIVSS VL: DIVMTQSHKFMSRSVGDRVRITCKASQDVGTAVAWYQQKPGQSPKLLIYWATTRHSGVPDRFTGSGSGTDFIFTISNVQSEDLADYFCQQYSSNPLTFGAGTKLELK , state its recorded pEC50.
## Output 9.05

## Input For xi90G10H7 hIgG1 (antibody, V domains shown, chimeric, hIgG1) VH: QVQLQQPGAVLVKPGASVKMSCKASGYTFTSYIIHWVKQTPGQGLEWVGAIYPGNGDASSIQKFKGKATLTVDKSSSTAYMQLSSLTSADSAVYYCARGHYYGSAAWFAYWGQGTLVTVSA VL: DILLTQSPAILSVSPGERVSFSCRASQNIGTGIHWYQQRTNGSLRLLIKYASESISGIPSRFSGSGSGTDFTLSINSVESEDIADYYCQQSNSWPLTFGAGTKLELK , what is its reported pEC50?
## Output 8.94

## Input Which pEC50 is listed for 63A11D5B4 VH_P1/VL hIgG1 (antibody, V domains shown, PTM-derisked chimeric, hIgG1; that P1 is the SG version follows from the humanized .p1 chains; also called 63A11D5B4.p1 hIgG1) VH: QVQLQQPGAELVKPGASVKMSCRTSGYTFITYNMHWVKQTPGQGREWIGAIYPGSGDTSYNQKFKGKATLTADKSSSTAYMQLNSLTSEDSAVYYCSISTIITTGAVDYWGQGTSVTVAS VL: DIVMTQSHKFMSTSVGDRVSITCKASQDVGTAVAWYQQKAGQSPKLLIYWTSTRHTGVPDRFTGSGSGTDFTLIIRSLQSEDLADYFCQQYSRIPLTFGSGTKLEIK ?
## Output 8.83

## Input Given the binder xi63A11D5B4 hIgG1 (antibody, V domains shown, chimeric, hIgG1) VH: QVQLQQPGAELVKPGASVKMSCRTSGYTFITYNMHWVKQTPGQGREWIGAIYPGNGDTSYNQKFKGKATLTADKSSSTAYMQLNSLTSEDSAVYYCSISTIITTGAVDYWGQGTSVTVAS VL: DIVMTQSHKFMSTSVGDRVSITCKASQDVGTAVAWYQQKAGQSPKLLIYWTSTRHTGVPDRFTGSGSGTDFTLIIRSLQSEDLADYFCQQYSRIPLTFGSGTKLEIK , what is its reported pEC50?
## Output 8.67

Data credit: patent US20240301052A1
